Give measured O.D. 450 for each item. Keep answers brief.
subject.of.test: control human IgG (human)
protocol.text: ELISA, periplasmic extract on control IgG
Kindly answer with a numeric value in O.D. 450, unit omitted.

// VHH 011 (2B06) (VHH, Llama single domain antibody; also called 57(#11); VHCDR3 57(#11); not shown: tags: c-myc tag in periplasmic extract (ELISA, FACS); FLAG and His tags in purified VHH (SPR, infection assays)) VHH: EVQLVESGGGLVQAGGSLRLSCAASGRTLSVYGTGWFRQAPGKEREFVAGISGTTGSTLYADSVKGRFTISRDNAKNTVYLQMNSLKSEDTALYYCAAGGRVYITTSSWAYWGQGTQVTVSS : O.D. 450 value = 0.059

// VHH 023 (4E10) (VHH, Llama single domain antibody; also called 70(#23); VHCDR3 70(#23); not shown: tags: c-myc tag in periplasmic extract (ELISA, FACS); FLAG and His tags in purified VHH (SPR, infection assays)) VHH: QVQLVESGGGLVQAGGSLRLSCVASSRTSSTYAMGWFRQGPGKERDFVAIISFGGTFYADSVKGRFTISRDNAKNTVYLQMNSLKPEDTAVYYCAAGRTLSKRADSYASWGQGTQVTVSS : O.D. 450 value = 0.054

// VHH 002 (1B04) (VHH, Llama single domain antibody; also called 76(#2); VHCDR3 76(#2); not shown: tags: c-myc tag in periplasmic extract (ELISA, FACS); FLAG and His tags in purified VHH (SPR, infection assays)) VHH: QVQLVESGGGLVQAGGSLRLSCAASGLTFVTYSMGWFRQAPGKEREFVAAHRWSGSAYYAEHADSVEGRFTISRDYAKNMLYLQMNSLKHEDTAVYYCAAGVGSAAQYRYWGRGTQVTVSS : O.D. 450 value = 0.057

// VHH 012 (2C07) (VHH, Llama single domain antibody; also called 41(#12); VHCDR3 41(#12); not shown: tags: c-myc tag in periplasmic extract (ELISA, FACS); FLAG and His tags in purified VHH (SPR, infection assays)) VHH: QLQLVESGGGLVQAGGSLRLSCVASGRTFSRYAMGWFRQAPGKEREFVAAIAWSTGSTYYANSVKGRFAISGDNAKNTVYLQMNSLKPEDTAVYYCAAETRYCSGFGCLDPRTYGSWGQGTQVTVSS : O.D. 450 value = 0.057

Reference for the values: patent US20230203185A1
